# assay remarks: qHTS of pediatric cancer cell lines to identify multiple opportunities for drug repurposing: Primary screen for DAOY cells (AID 1347090); also: nearly all actives have a fitted effect of over 55% in size
# condition description: DAOY medulloblastoma viability, CellTiter-Glo luminescence, 48 h; series mostly up to 46 µM
Records with an inconclusive call do not appear. Activity calls are given as the source filed them. Calls follow the shape of the dose curve; as a rule, active = well fitted cell-killing curve with a large enough effect; inconclusive = small, poorly fitted or top-dose-only effect; inactive = flat fitted curve, though single readings scatter.
Labels: label 1 (active), label 0 (inactive)

- compound: "Cn1cc(C[C@@H](N)C(=O)O)c2ccccc21"
  group: "label 0"
- compound: "NC(=O)c1cccc(-c2cccc(OC(=O)NC3CCCCC3)c2)c1"
  group: "label 0"
- compound: "O=C(C=Cc1ccc(CN(CCO)CCc2c[nH]c3ccccc23)cc1)NO"
  group: "label 1"
- compound: "C[C@@]12C[C@@]3(O)O[C@@H](O1)[C@]1(COC(=O)c4ccccc4)[C@@H]3C[C@@]12O[C@@H]1O[C@H](CO)[C@@H](O)[C@H](O)[C@@H]1O"
  group: "label 0"
- compound: "O=C(CN1C(=O)C2(CCCC2)NC[C@H]1c1cc(F)cc(F)c1)Nc1ccc2c(c1)C[C@@]1(C2)C(=O)Nc2ncccc21"
  group: "label 0"
- compound: "COc1cccc2c1C(=O)c1c(O)c3c(c(O)c1C2=O)C[C@@](O)(C(=O)CO)C[C@@H]3O[C@H]1C[C@H](N)[C@@H](O)[C@H](C)O1"
  group: "label 1"
- compound: "Cc1ccc([N+](=O)[O-])cc1S(=O)(=O)N(C)N=Cc1cnc2ccc(Br)cn12"
  group: "label 1"
- compound: "CC(O)(C#Cc1ccc2c(c1)N(c1nc(N)ncc1Cl)CC2)c1nccs1 (configuration not stated)"
  group: "label 1"
- compound: "CC(=O)N[C@@H]1[C@H](O[C@@H]2c3ccc(c(Cl)c3)Oc3cc4cc(c3O[C@H]3O[C@H](CO)[C@@H](O)[C@H](O)[C@H]3NC(=O)CCCCCCCC(C)C)Oc3ccc(cc3Cl)C[C@H]3NC(=O)[C@H](N)c5ccc(O)c(c5)Oc5cc(O)cc(c5)[C@H](NC3=O)C(=O)N[C@H]4C(=O)N[C@H]3C(=O)N[C@@H]2C(=O)N[C@@H](C(=O)O)c2cc(O)cc(O[C@H]4O[C@H](CO)[C@@H](O)[C@H](O)[C@H]4O)c2-c2cc3ccc2O)O[C@H](CO)[C@@H](O)[C@@H]1O"
  group: "label 0"
- compound: "OCCNC1CCCc2c1[nH]c1ccc(-c3ccccc3)cc21 (configuration not stated)"
  group: "label 0"
- compound: "Cc1ccc(O)c(C(CCN(C(C)C)C(C)C)c2ccccc2)c1 (configuration not stated)"
  group: "label 0"
- compound: "O=C1NCCc2[nH]c(-c3ccncc3)cc21"
  group: "label 1"
- compound: "C[C@H](CCC(=O)O)[C@H]1CCC2C3C[C@H](O)[C@@H]4C[C@H](O)CC[C@]4(C)C3CC[C@@]21C (some centres not stated)"
  group: "label 0"
- compound: "C#C[C@]1(O)CC[C@@H]2[C@@H]3CCC4=CC(=O)CC[C@@H]4[C@H]3CC[C@@]21CC"
  group: "label 0"
- compound: "CCc1c(O)cc(O)c(C(=O)c2ccc(OCCN3CCOCC3)c(OC)c2)c1CC(=O)N(CCOC)CCOC"
  group: "label 1"
- compound: "Cc1ccc(-n2[nH]c(C)c(N=Nc3cccc(-c4cccc(C(=O)O)c4)c3O)c2=O)cc1C"
  group: "label 1"
- compound: "CN[C@H]1[C@@H](O)[C@@H]2O[C@@H]3O[C@H](C)CC(=O)[C@]3(O)O[C@@H]2[C@@H](NC)[C@H]1O"
  group: "label 1"
- compound: "CC[C@]12C=CCN3CC[C@@]4(c5cc([C@@]6(C(=O)OC)C[C@H]7C[C@@H](C(C)(F)F)CN(Cc8c6[nH]c6ccccc86)C7)c(OC)cc5N(C)[C@H]4[C@@](O)(C(=O)OC)[C@H]1OC(C)=O)[C@@H]32"
  group: "label 1"
- compound: "c1cncc(CN2CCC(n3ncc4c(N5CCOCC5)nc(-c5ccc6[nH]ccc6c5)nc43)CC2)c1"
  group: "label 1"
- compound: "CCOC(=O)C1=C(C)NC(=S)NC1c1cccc(O)c1 (configuration not stated)"
  group: "label 1"
- compound: "CO[C@@H]1[C@@H](O)[C@H](O)[C@@H](n2c3c(Cl)cccc3c3c4c(c5c6cccc(Cl)c6[nH]c5c32)C(=O)NC4=O)O[C@@H]1CO"
  group: "label 1"
- compound: "CC(Cc1ccc(O)c(O)c1)(NN)C(=O)O (configuration not stated)"
  group: "label 0"
- compound: "Oc1cc2c(cc1O)C1c3ccc(O)c(O)c3OCC1(O)C2 (configuration not stated)"
  group: "label 0"
- compound: "COc1cc(OC)cc(-c2ccc3ncc4ccc(=O)n(-c5ccc(N6CCNCC6)c(C(F)(F)F)c5)c4c3c2)c1"
  group: "label 1"
- compound: "C=Cc1c(C)c2cc3nc(cc4[nH]c(cc5nc(cc1[nH]2)C(C)=C5CCC(=O)O)c(CCC(=O)OC)c4C)[C@@]1(C)C3=CC=C(C(=O)OC)[C@H]1C(=O)OC"
  group: "label 1"
- compound: "C[C@H](NCc1ccc2c(c1)nc(NC(=O)c1ccc(-c3cn[nH]c3)s1)n2CCc1ccccc1)C(C)(C)C"
  group: "label 1"
- compound: "c1coc(CNc2ncnc3nc[nH]c23)c1"
  group: "label 0"
- compound: "Cc1noc(-c2ccc(CSCCC(=O)O)cc2)c1NC(=O)OC(C)c1ccccc1Cl (configuration not stated)"
  group: "label 0"
- compound: "OC[C@@H](O)[C@@H](O)[C@H](O)[C@@H](O)CO"
  group: "label 0"
- compound: "Nc1nc2c(c(=O)[nH]1)N(C=O)[C@H](CNc1ccc(C(=O)N[C@@H](CCC(=O)O)C(=O)O)cc1)CN2"
  group: "label 0"
- compound: "CC(=O)NC(CS)C(=O)O (configuration not stated)"
  group: "label 0"
- compound: "NC(=O)c1ncn([C@@H]2O[C@H](CO)[C@@H](O)[C@@H]2O)c1O"
  group: "label 0"
